Reference source for all entries: paper PMC5011961

The following compounds are shown together with reported MIC values.
Test system: Microsporum canis
Test: Antifungal assay, macrobroth 2-fold serial dilution MIC
Response body: numeric value in µg/mL, unit text excluded.

// MIC lookup, key: N#CCC(=O)N/N=C/c1c[n+]([O-])c2ccccc2[n+]1[O-] [CYA, cyadox]
32

Okay, and C[C@@H]1[C@H](O)[C@@H](C)/C=C/C=C/C=C/C=C/C=C/C=C/C=C/[C@H](O[C@@H]2O[C@H](C)[C@@H](O)[C@H](N)[C@@H]2O)C[C@@H]2O[C@](O)(C[C@@H](O)C[C@@H](O)[C@H](O)CC[C@@H](O)C[C@@H](O)CC(=O)O[C@H]1C)C[C@H](O)[C@H]2C(=O)O [AMB, amphotericin B] ?
1

Okay, and Cc1c(C(=O)/C=C/c2ccccc2)[n+]([O-])c2ccccc2[n+]1[O-] [QCT, quinocetone] ?
16

Okay, and CC(=O)N1CCN(c2ccc(OCC3COC(Cn4ccnc4)(c4ccc(Cl)cc4Cl)O3)cc2)CC1 (centres unmarked) [KCZ, ketoconazole] ?
0.5

----------
Test system: M. tuberculosis H37Rv ATCC 27294
Experiment: Microdilution alamar blue assay (MABA)
Format: cell-based, Mycobacterium tuberculosis
Conditions: Mycobacterium tuberculosis, read-out: MIC
metric: MIC
The reply must contain the numeric value and, after it, the unit.

// MIC lookup, key: "NCC[C@H](O)C(=O)N[C@@H]1C[C@H](N)[C@@H](O[C@H]2O[C@H](CN)[C@@H](O)[C@H](O)[C@H]2O)[C@H](O)[C@H]1O[C@H]1O[C@H](CO)[C@@H](O)[C@H](N)[C@H]1O"
3.2 µg/mL

Okay, and "CO[C@H]1/C=C/O[C@@]2(C)Oc3c(C)c(O)c4c(O)c(c(/C=N/N5CCN(C)CC5)c(O)c4c3C2=O)NC(=O)/C(C)=C\C=C\[C@H](C)[C@H](O)[C@@H](C)[C@@H](O)[C@@H](C)[C@H](OC(C)=O)[C@@H]1C" ?
0.05 µg/mL

Okay, and "[H]/N=C(/N)N[C@H]1[C@H](O)[C@@H](O)[C@H](O[C@@H]2O[C@@H](C)[C@](O)(C=O)[C@H]2O[C@@H]2O[C@@H](CO)[C@H](O)[C@@H](O)[C@@H]2NC)[C@@H](N/C(N)=N\[H])[C@@H]1O" ?
0.025 µg/mL

Okay, and "N#CCC(=O)N/N=C/c1c[n+]([O-])c2ccccc2[n+]1[O-]" ?
4 µg/mL

Okay, and "CC[C@@H](CO)NCCN[C@@H](CC)CO" ?
0.025 µg/mL

----------
System: PK-15 cells
Experiment: Cytotoxicity assay (MTT)
Settings: PK-15, maximum non-cytotoxic concentration (90 % cell viability)
Binary label based on MNTC with cut-off 2 µg/mL: below gives Y, not below gives N.

# example entries with known answers
CC(=O)c1c(C)[n+]([O-])c2ccccc2[n+]1[O-] [MEQ, mequindox]: Y
Cc1c(C(=O)/C=C/c2ccccc2)[n+]([O-])c2ccccc2[n+]1[O-] [QCT, quinocetone]: Y
Cc1c(C(C)O)nc2ccccc2[n+]1[O-] (stereo not shown) [M4, carbonyl reduction N1-deoxy mequindox]: N

Please determine if N#CCC(=O)N/N=C/c1c[n+]([O-])c2ccccc2[n+]1[O-] [CYA, cyadox] is below 2 µg/mL in terms of MNTC.
Y
